Measured log10 of viscosity by item
- CONDITION_NOTES: 313.15 K; 101 kPa
Log10 applied to viscosity; unit prior to transform: mPa·s.

CCCBr
-0.35
CCC(O)CO (stereo not given)
1.36
CCCC
-0.84
C[NH+](CCO)CCO.O=C[O-]
2.28

What does the data say about its log10 of viscosity? Entry: COP(=O)([O-])OC.Cn1cc[n+](C)c1 2.08

* * *

- EXPERIMENT_NOTES: xn = mol fraction of the nth substance listed
- CONDITION_NOTES: 303 K; 101.33 kPa; x1 = 0.6
ENDPOINT_NAME: viscosity (mPa·s)
Output spec: scalar in mPa·s, unitless text.

A selection of reference data follows.
Nc1ccccc1 + CC(C)(C)O
2.305
Nc1ccccc1 + CC(C)CO
2.172

What does the data say about its viscosity? Entry: Nc1ccccc1 + CCCCO 2.013

What does the data say about its viscosity? Entry: Nc1ccccc1 + Cc1cccc(C)c1 2.225

What does the data say about its viscosity? Entry: Nc1ccccc1 + CCC(C)O 2.156

* * *

- CONDITION_NOTES: 293.15 K; 101.33 kPa
ENDPOINT_NAME: viscosity (mPa·s)
Output spec: scalar in mPa·s, unitless text.

CCCCOC(=O)c1ccccc1
2.835
Nc1ccccc1
4.404

What does the data say about its viscosity? Entry: CCNCC 0.32

What does the data say about its viscosity? Entry: CCCC 0.17

* * *

- EXPERIMENT_NOTES: xn = mol fraction of the nth substance listed
- CONDITION_NOTES: 303.2 K; 101.33 kPa; x2 = 0.9
ENDPOINT_NAME: viscosity (mPa·s)
Output spec: scalar in mPa·s, unitless text.

A selection of reference data follows.
CC(C)(C)O + CO
0.658
CC(C)(C)O + CCCCCC
0.289
CC(C)(C)O + c1ccccc1
0.553
CC(C)(C)O + CCO
1.147
CC(C)(C)O + CC(C)O
1.9

Now consider a different molecule.
What does the data say about its viscosity? Entry: CC(C)(C)O + O 2.604

* * *

Measured viscosity by item
- EXPERIMENT_NOTES: xn = mol fraction of the nth substance listed
- CONDITION_NOTES: 303 K; 101.33 kPa; x1 = 0.8
Output spec: scalar in mPa·s, unitless text.

A selection of reference data follows.
Nc1ccccc1 + CC(C)(C)O
2.524
Nc1ccccc1 + CC(C)CO
2.366
Nc1ccccc1 + CCCCO
2.342

What does the data say about its viscosity? Entry: Nc1ccccc1 + CCC(C)O 2.504

What does the data say about its viscosity? Entry: Nc1ccccc1 + Cc1cccc(C)c1 2.675

* * *

- EXPERIMENT_NOTES: xn = mol fraction of the nth substance listed
- CONDITION_NOTES: 303.2 K; 101.33 kPa; x2 = 0.3
ENDPOINT_NAME: viscosity (mPa·s)
Output spec: scalar in mPa·s, unitless text.

A selection of reference data follows.
CC(C)(C)O + CCCCCC
0.749
CC(C)(C)O + CO
2.4
CC(C)(C)O + CC(C)O
2.931
CC(C)(C)O + CCO
2.645
CC(C)(C)O + c1ccccc1
1.06

Now consider a different molecule.
What does the data say about its viscosity? Entry: CC(C)(C)O + O 3.455

* * *

- EXPERIMENT_NOTES: xn = mol fraction of the nth substance listed
- CONDITION_NOTES: 303.2 K; 101.33 kPa; x2 = 0.4
Entry flag: True if viscosity reaches 2 mPa·s; False if it does not.

Illustrative cases are given below, each with its answer.
CC(C)(C)O + c1ccccc1
False
CC(C)(C)O + O
True
CC(C)(C)O + CCO
True

I'd appreciate it if you could say whether CC(C)(C)O + CC(C)O has viscosity at least equal to 2 mPa·s. True

I'd appreciate it if you could say whether CC(C)(C)O + CCCCCC has viscosity at least equal to 2 mPa·s. False

* * *

Measured viscosity by item
- EXPERIMENT_NOTES: xn = mol fraction of the nth substance listed
- CONDITION_NOTES: 303.2 K; 101.33 kPa; x2 = 0.1
Output spec: scalar in mPa·s, unitless text.

What does the data say about its viscosity? Entry: CC(C)(C)O + CC(C)O 3.237

What does the data say about its viscosity? Entry: CC(C)(C)O + CCO 3.156

What does the data say about its viscosity? Entry: CC(C)(C)O + CCCCCC 1.677

What does the data say about its viscosity? Entry: CC(C)(C)O + c1ccccc1 1.968

What does the data say about its viscosity? Entry: CC(C)(C)O + CO 3.166

What does the data say about its viscosity? Entry: CC(C)(C)O + O 3.214

* * *

- EXPERIMENT_NOTES: xn = mol fraction of the nth substance listed
- CONDITION_NOTES: 303.15 K; 100 kPa; x2 = 0.5
± gives the uncertainty stated by the source.
ENDPOINT_NAME: viscosity

A selection of reference data follows.
CCC(O)CO (centres undefined) + CCCCO
7.482 ± 0.18 mPa·s
CCNCC + CCCCOCCO
1.212 ± 0.1 mPa·s
CCC(O)CO (centres undefined) + CC(C)CO
8.609 ± 0.21 mPa·s

Now consider a different compound.
What does the data say about its viscosity? Entry: CCNCC + CCCCOCCOCCO 1.896 ± 0.15 mPa·s

* * *

- EXPERIMENT_NOTES: xn = mol fraction of the nth substance listed
- CONDITION_NOTES: 303 K; 101.33 kPa; x1 = 0.4
Entry flag: 1 (yes) if viscosity reaches 2 mPa·s; 0 (no) if it does not.

Nc1ccccc1 + CC(C)(C)O
1 (yes)
Nc1ccccc1 + CCCCO
0 (no)

Below: the item to evaluate.
I'd appreciate it if you could say whether Nc1ccccc1 + Cc1cccc(C)c1 has viscosity at least equal to 2 mPa·s. 0 (no)

* * *

- EXPERIMENT_NOTES: xn = mol fraction of the nth substance listed
- CONDITION_NOTES: 298.15 K; 100 kPa; x2 = 0.5
Measured viscosity by item
Output spec: scalar in mPa·s, unitless text.

A selection of reference data follows.
CCC(O)CO (centres undefined) + CC(C)CO
10.88
CCNCC + CCCCOCCOCCO
2.156
CCC(O)CO (centres undefined) + CCCCO
8.818

Now consider a different compound.
What does the data say about its viscosity? Entry: CCNCC + CCCCOCCO 1.356

* * *

Measured log10(viscosity) by item
- CONDITION_NOTES: 323.15 K; 101 kPa
Log10 applied to viscosity; unit prior to transform: mPa·s.

CCCBr
-0.38

What does the data say about its log10(viscosity)? Entry: CCC(O)CO (stereo unspecified) 1.11

What does the data say about its log10(viscosity)? Entry: CCCC(=O)OC -0.43

What does the data say about its log10(viscosity)? Entry: Nc1ccccc1 0.26

What does the data say about its log10(viscosity)? Entry: C[NH+](CCO)CCO.O=C[O-] 2.10

What does the data say about its log10(viscosity)? Entry: COP(=O)([O-])OC.Cn1cc[n+](C)c1 1.87

* * *

- CONDITION_NOTES: 308.15 K; 101.33 kPa
± gives the uncertainty stated by the source.
ENDPOINT_NAME: viscosity

A selection of reference data follows.
CCNCC
0.274 ± 0.007 mPa·s
COP(=O)([O-])OC.Cn1cc[n+](C)c1
139.5 ± 2.6 mPa·s
NCCN
1.191 ± 0.01 mPa·s

What does the data say about its viscosity? Entry: Nc1ccccc1 2.615 ± 0.053 mPa·s

* * *

- CONDITION_NOTES: 298.15 K; 101 kPa
ENDPOINT_NAME: viscosity (mPa·s)
Output spec: scalar in mPa·s, unitless text.

C[NH+](CCO)CCO.O=C[O-]
491.4

Now consider a different compound.
What does the data say about its viscosity? Entry: CCCC(=O)OC 0.546

* * *

- CONDITION_NOTES: 298.15 K; 101 kPa
So basically, if viscosity comes in under 50 mPa·s it's rule met, and if it's 50 mPa·s or more it's rule not met.

Illustrative cases are given below, each with its answer.
COP(=O)([O-])OC.Cn1cc[n+](C)c1
rule not met
CCC(O)CO (stereo unspecified)
rule not met
CN(CCO)CCO
rule not met

Input CCCCOC(=O)c1ccccc1 ; condition: viscosity strictly below 50 mPa·s. Does it hold? rule met

Input COCCOCCOCCOC ; condition: viscosity strictly below 50 mPa·s. Does it hold? rule met

Input ClCc1ccccc1 ; condition: viscosity strictly below 50 mPa·s. Does it hold? rule met
